# subject of test: Ubiquitin carboxyl-terminal hydrolase 10 (Homo sapiens)
# assay: ubiquitin-specific protease 10 DUB inhibitors, concentration-effect, biochemical, verification of primary screen actives (AID 1645863);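 further: potency values describe inhibition of USP10 cleavage of a fluorogenic ubiquitin substrate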
# run conditions: USP10 deubiquitinase enzymatic assay
Active and inactive are the calls of the source. How the calls were made is not given here.
quantity kind: IC50

compound | measured result
Cn1c(O)c(C2=Nc3ccccc3SC(c3cccc(O)c3)C2)c(=O)[nH]c1=O (centres undefined) | > 40 µM (inactive)

QUERY: Recorded IC50 of CCc1ccc(NC(=O)c2cc(C(F)(F)F)n(C)n2)cc1 , please.
RESULT: > 40 µM (inactive)

QUERY: Returns the measured IC50 for the input compound. Input: O=C(Nc1ccc(C(F)(F)F)cc1)C1CC(=O)N(c2ccc3c(c2)OCCO3)C1 (centres undefined)
RESULT: > 40 µM (inactive)

QUERY: Please report the recorded IC50 for Cc1cccc(NC(=O)CSc2nc3c(cc2C#N)C(=O)CCC3)c1 .
RESULT: 26.4 µM

QUERY: Recorded IC50 for COc1ccc(NC(=O)CC(=O)c2ccc([N+](=O)[O-])cc2)cc1S(=O)(=O)Nc1ccc(Br)cc1 , please?
RESULT: 22.9 µM

QUERY: Field request: IC50 | item: CCc1cccc(C)c1NC(=O)Cn1nc2ccc(C(=O)NCc3ccccc3)cn2c1=O
RESULT: 29.3 µM

QUERY: May I ask what IC50 has been recorded for COc1cc(Cl)c(NC(=O)c2cc(-c3ccccn3)n[nH]2)c(OC)c1 ?
RESULT: > 40 µM (inactive)
